Target: cdHDAC4wt (Homo sapiens, UniProt P56524)
Construct: consists of 410 amino acids (human HDAC4 T648-T1057) and has a molecular weight of 44.2 kDa; His6-SUMO (cleaved yes); made in house; host or cells: E. coli (BL21) DE3 pLysS, pET14b vector
Experiment: Association kinetics (semi continuous enzyme activity assay, kobs vs inhibitor concentration)
Assay type: biochemical
Conditions: 1/koff (two step) or 1/k−3 (one step); read-out: RT (KF), residence time from kinetic fit
Lab note: anything with residence time at or over 10 min counts as fulfilled; the rest go in not fulfilled.

{"molecule": "O=C1NC(=O)/C(=C/c2ccc3cc(OCC(=O)N4N=C(c5ccccc5)CC4c4ccccc4)ccc3c2)S1 (stereo not shown) [8a]", "label-class": "fulfilled"}
{"molecule": "O=C(COc1ccc2cc(/C=C3\\SC(=O)NC3=O)ccc2c1)Nc1ccc(C(F)(F)F)cc1 [7i]", "label-class": "not fulfilled"}
{"molecule": "O=C1NC(=O)/C(=C/c2ccc(OCC(=O)N3N=C(c4ccccc4)CC3c3ccc(C(F)(F)F)cc3)cc2)S1 (stereo not shown) [4d]", "label-class": "fulfilled"}
{"molecule": "O=C(COc1ccc(/C=C2\\SC(=O)NC2=O)cn1)Nc1nc2ccccc2s1 [5w]", "label-class": "fulfilled"}
{"molecule": "O=C1NC(=O)/C(=C/c2ccc3cc(OCC(=O)N4N=C(c5ccccc5)CC4c4ccco4)ccc3c2)S1 (stereo not shown) [8c]", "label-class": "fulfilled"}
{"molecule": "O=C1NC(=O)/C(=C/c2ccc3cc(OCC(=O)N4N=C(c5ccccc5)CC4c4ccccc4F)ccc3c2)S1 (stereo not shown) [8b]", "label-class": "fulfilled"}
{"molecule": "O=C1NC(=O)/C(=C/c2ccc(OCC(=O)N3N=C(c4ccc(F)cc4)CC3c3ccc(Cl)c(Cl)c3)cc2)S1 (stereo not shown) [12j]", "label-class": "not fulfilled"}
{"molecule": "O=C1NC(=O)/C(=C/c2ccc3cc(OCC(=O)N4N=C(c5ccccc5)CC4c4cccs4)ccc3c2)S1 (stereo not shown) [8i]", "label-class": "fulfilled"}

* * *

Molecular target: cdHDAC4wt (Homo sapiens)
Construct: consists of 410 amino acids (human HDAC4 T648-T1057) and has a molecular weight of 44.2 kDa; His6-SUMO (cleaved yes); made in house; host or cells: E. coli (BL21) DE3 pLysS, pET14b vector
Assay: Association kinetics (semi continuous enzyme activity assay, kobs vs inhibitor concentration)
Format: biochemical
Details: isomerization rate, two step model
Please map values of forward isomerization rate constant (k2) to classes as shown: bin 1 = under 0.003 s⁻¹, bin 2 = from 0.003 s⁻¹ up to 0.005 s⁻¹, bin 3 = 0.005 s⁻¹ and over

{"compound": "O=C1NC(=O)/C(=C/c2ccc3cc(OCC(=O)N4N=C(c5ccccc5)CC4c4cccs4)ccc3c2)S1 (stereo not drawn) [8i]", "label-class": "bin 3"}
{"compound": "O=C1NC(=O)/C(=C/c2ccc(OCC(=O)N3N=C(c4ccccc4)CC3c3ccc(C(F)(F)F)cc3)cc2)S1 (stereo not drawn) [4d]", "label-class": "bin 3"}
{"compound": "O=C1NC(=O)/C(=C/c2ccc(OCC(=O)N3N=C(c4ccc(F)cc4)CC3c3ccc(Cl)c(Cl)c3)cc2)S1 (stereo not drawn) [12j]", "label-class": "bin 2"}
{"compound": "O=C1NC(=O)/C(=C/c2ccc3cc(OCC(=O)N4N=C(c5ccccc5)CC4c4ccco4)ccc3c2)S1 (stereo not drawn) [8c]", "label-class": "bin 1"}
{"compound": "O=C1NC(=O)/C(=C/c2ccc3cc(OCC(=O)N4N=C(c5ccc(F)cc5)CC4c4ccco4)ccc3c2)S1 (stereo not drawn) [16c]", "label-class": "bin 2"}
{"compound": "Cc1ccc(C2CC(c3ccccc3)=NN2C(=O)COc2ccc3cc(/C=C4\\SC(=O)NC4=O)ccc3c2)cc1 (stereo not drawn) [8g]", "label-class": "bin 2"}

* * *

Target: cdHDAC4wt (catalytic domain of human wild type histone deacetylase 4) (Homo sapiens, UniProt P56524)
Sequence (P56524 648-1057): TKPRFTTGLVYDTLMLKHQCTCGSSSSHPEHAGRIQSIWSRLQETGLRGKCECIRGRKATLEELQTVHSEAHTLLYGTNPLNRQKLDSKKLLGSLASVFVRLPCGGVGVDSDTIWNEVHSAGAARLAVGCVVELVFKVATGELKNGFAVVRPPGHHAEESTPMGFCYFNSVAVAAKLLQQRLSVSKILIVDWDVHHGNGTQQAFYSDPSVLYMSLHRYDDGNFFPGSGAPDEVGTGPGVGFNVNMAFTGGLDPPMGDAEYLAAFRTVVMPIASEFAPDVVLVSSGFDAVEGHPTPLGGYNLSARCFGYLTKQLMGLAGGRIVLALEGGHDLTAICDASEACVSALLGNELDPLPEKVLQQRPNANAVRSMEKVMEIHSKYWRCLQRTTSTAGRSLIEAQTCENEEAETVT
pIC50: −log10 of the molar value.

{"compound": "O=C(COc1ccc2cc(/C=C3\\SC(=O)NC3=O)ccc2c1)Nc1ccc(C(F)(F)F)cc1", "pIC50": 5.89}
{"compound": "O=C(COc1ccc2cc(/C=C3\\SC(=O)NC3=O)ccc2c1)Nc1ncccc1F", "pIC50": 6.11}
{"compound": "Cc1ccc(C2CC(c3ccc(F)cc3)=NN2C(=O)COc2ccc3cc(/C=C4\\SC(=O)NC4=O)ccc3c2)cc1 (stereo not shown) [16g]", "pIC50": 6.34}
{"compound": "O=C1NC(=O)/C(=C/c2ccc3cc(OCC(=O)N4N=C(c5ccccc5)CC4c4ccco4)ccc3c2)S1 (stereo not shown)", "pIC50": 5.92}
{"compound": "O=C1NC(=O)/C(=C/c2ccc(OCC(=O)N3N=C(c4ccccc4)CC3c3ccc(C(F)(F)F)cc3)cc2)S1 (stereo not shown)", "pIC50": 6.10}
{"compound": "O=C1NC(=O)/C(=C/c2ccc3cc(OCC(=O)N4N=C(c5ccc(F)cc5)CC4c4ccco4)ccc3c2)S1 (stereo not shown) [16c]", "pIC50": 5.85}
{"compound": "O=C1NC(=O)/C(=C/c2ccc(OCC(=O)N3N=C(c4ccc(F)cc4)CC3c3ccc(Cl)c(Cl)c3)cc2)S1 (stereo not shown) [12j]", "pIC50": 6.08}

* * *

Target: cdHDAC4wt (Homo sapiens)
Construct: consists of 410 amino acids (human HDAC4 T648-T1057) and has a molecular weight of 44.2 kDa; His6-SUMO (cleaved yes); made in house; host or cells: E. coli (BL21) DE3 pLysS, pET14b vector
Assay: Reversibility assay via rapid dilution; residence time from reversibility data
Assay type: biochemical
Conditions: first order dissociation assumed; read-out: RT (RD), residence time from rapid dilution
Protocol: Rapid dilution was performed by diluting the incubated mixture 100-fold with substrate (Boc-Lys{TFA}-7-Amino-4-methylcoumarin (Bachem, Bubendorf, Switzerland)) with the final substrate concentration being 20 µM. […] A positive control without TZD ligand and a blank without enzyme and TZD ligand were also carried out. […] The release of fluorogenic substrate was followed in a microplate reader (PherStar Plus, BMG Labtech, Ortenberg, Germany) at 450 nm (λEx = 350 nm) and correlated the positive control. […]
residence time by entry:
assay-endpoint: residence time

{"compound": "Cc1ccc(C2CC(c3ccc(F)cc3)=NN2C(=O)COc2ccc3cc(/C=C4\\SC(=O)NC4=O)ccc3c2)cc1 (stereo not shown) [16g]", "value-observed": "15 min"}
{"compound": "Cc1ccc(C2CC(c3ccccc3)=NN2C(=O)COc2ccc3cc(/C=C4\\SC(=O)NC4=O)ccc3c2)cc1 (stereo not shown) [8g]", "value-observed": "18 min"}
{"compound": "O=C1NC(=O)/C(=C/c2ccc3cc(OCC(=O)N4N=C(c5ccccc5)CC4c4cccs4)ccc3c2)S1 (stereo not shown) [8i]", "value-observed": "13 min"}
{"compound": "O=C(COc1ccc(/C=C2\\SC(=O)NC2=O)cn1)Nc1nc2ccccc2s1 [5w]", "value-observed": "12 min"}

* * *

Target: cdHDAC4wt (Homo sapiens, UniProt P56524)
Construct: consists of 410 amino acids (human HDAC4 T648-T1057) and has a molecular weight of 44.2 kDa; His6-SUMO (cleaved yes); made in house; host or cells: E. coli (BL21) DE3 pLysS, pET14b vector
Test: Association kinetics (semi continuous enzyme activity assay, kobs vs inhibitor concentration)
Format: biochemical
Conditions: isomerization rate, two step model

{"molecule": "O=C1NC(=O)/C(=C/c2ccc3cc(OCC(=O)N4N=C(c5ccccc5)CC4c4ccccc4F)ccc3c2)S1 (stereo not drawn) [8b]", "forward isomerization rate constant (k2)": "0.003 s⁻¹"}
{"molecule": "O=C1NC(=O)/C(=C/c2ccc3cc(OCC(=O)N4N=C(c5ccccc5)CC4c4ccccc4)ccc3c2)S1 (stereo not drawn) [8a]", "forward isomerization rate constant (k2)": "0.0049 s⁻¹"}
{"molecule": "Cc1ccc(C2CC(c3ccc(F)cc3)=NN2C(=O)COc2ccc3cc(/C=C4\\SC(=O)NC4=O)ccc3c2)cc1 (stereo not drawn) [16g]", "forward isomerization rate constant (k2)": "0.0051 s⁻¹"}
